Cited source for all entries: ChEMBL document CHEMBL1154515

- TARGET OR SYSTEM: Potassium voltage-gated channel subfamily A member 3 (Homo sapiens)
- Sequence (P22001 whole entry): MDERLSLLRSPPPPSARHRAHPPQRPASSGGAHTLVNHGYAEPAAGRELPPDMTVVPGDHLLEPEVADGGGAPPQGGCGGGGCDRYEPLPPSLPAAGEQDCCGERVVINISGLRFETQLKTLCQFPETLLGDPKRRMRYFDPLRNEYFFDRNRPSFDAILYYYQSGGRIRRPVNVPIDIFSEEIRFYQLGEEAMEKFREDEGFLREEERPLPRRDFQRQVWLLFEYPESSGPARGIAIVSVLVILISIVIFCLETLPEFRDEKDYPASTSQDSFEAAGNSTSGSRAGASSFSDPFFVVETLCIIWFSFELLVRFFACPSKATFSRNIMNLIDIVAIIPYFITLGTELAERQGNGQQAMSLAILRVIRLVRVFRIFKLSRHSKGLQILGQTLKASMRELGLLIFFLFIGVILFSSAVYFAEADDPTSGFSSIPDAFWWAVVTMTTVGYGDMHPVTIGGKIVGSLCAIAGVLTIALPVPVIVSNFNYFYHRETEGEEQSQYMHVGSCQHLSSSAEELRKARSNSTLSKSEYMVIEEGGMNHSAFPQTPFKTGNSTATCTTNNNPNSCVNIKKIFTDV
- PROCEDURE TEXT: Inhibition of voltage-gated Kv1.3 potassium channel expressed in CHO cells by 86Rb efflux experiment
- Format: cell-based
READOUT LABEL: pIC50
Quick note: pIC50 means taking -log10 of the concentration in moles per liter.

COMPOUND	pIC50
C=C1CC[C@@H]2[C@](C)(CC[C@H]3OC(C(C)(C)O)=CC[C@]23C)[C@H]1Cc1c(OC)oc(C)c(C)c1=O [CANDELALIDE C]	5.60
C=C1CC[C@@H]2[C@](C)(CC[C@H]3OC=CC[C@]23C)[C@@H]1Cc1c(OC)oc(C)c(C)c1=O [CANDELALIDE A]	5.43

Next:
(Q) Query pIC50 for C=C1CC[C@@H]2[C@](C)(CC[C@H]3OC(C(C)(C)O)=C(O)C[C@]23C)[C@@H]1Cc1c(OC)oc(C)c(C)c1=O [CANDELALIDE B]
(A) 5.92
